# target: Factor X, P00742
# Sequence (P00742 whole entry, looked up): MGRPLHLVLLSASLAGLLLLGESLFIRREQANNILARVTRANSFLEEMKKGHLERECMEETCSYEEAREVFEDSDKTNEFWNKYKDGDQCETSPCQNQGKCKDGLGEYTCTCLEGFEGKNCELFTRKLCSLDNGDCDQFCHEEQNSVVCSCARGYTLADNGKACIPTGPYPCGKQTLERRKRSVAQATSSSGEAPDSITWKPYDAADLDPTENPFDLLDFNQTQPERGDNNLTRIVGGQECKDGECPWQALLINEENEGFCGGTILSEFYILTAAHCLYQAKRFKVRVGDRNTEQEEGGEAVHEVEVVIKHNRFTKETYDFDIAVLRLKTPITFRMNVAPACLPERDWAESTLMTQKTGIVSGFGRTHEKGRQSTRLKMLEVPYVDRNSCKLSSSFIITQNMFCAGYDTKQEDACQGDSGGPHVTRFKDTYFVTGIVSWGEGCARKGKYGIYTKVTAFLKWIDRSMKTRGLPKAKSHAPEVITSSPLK
value_kind: KM (nM)
Output spec: scalar in nM, unitless text.

protein | KM (nM)
FIXa-Y155F/I251S/R318Y/R338E/R403E/E410N (protein) chain 1: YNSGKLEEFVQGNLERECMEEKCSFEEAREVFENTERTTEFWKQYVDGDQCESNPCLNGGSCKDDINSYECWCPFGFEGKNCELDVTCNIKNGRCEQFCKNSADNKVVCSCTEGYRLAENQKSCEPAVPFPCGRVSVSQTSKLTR chain 2: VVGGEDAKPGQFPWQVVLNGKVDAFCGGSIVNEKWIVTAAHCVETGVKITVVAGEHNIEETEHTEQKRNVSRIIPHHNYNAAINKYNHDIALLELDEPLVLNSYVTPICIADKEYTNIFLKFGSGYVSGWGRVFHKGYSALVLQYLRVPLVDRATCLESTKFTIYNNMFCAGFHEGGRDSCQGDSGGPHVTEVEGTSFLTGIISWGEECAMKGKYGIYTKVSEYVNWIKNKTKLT | 43.3
FIXa-D203N/F205T/R338A (protein) chain 1: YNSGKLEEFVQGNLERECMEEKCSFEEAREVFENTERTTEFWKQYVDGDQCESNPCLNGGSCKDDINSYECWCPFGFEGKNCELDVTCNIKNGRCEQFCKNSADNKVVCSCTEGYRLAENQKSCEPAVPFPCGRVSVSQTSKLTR chain 2: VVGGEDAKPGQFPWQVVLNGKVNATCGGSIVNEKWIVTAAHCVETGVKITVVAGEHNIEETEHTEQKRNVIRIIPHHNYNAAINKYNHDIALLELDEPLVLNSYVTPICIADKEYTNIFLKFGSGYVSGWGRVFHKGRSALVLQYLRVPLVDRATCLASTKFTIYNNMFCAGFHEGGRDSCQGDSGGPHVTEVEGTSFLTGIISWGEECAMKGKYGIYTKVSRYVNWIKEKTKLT | 38.5
FIXa-K228N/R318Y/E410N (protein) chain 1: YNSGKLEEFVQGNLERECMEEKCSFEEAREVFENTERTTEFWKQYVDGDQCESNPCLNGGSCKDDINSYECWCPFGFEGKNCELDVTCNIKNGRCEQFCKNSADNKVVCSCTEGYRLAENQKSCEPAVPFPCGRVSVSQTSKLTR chain 2: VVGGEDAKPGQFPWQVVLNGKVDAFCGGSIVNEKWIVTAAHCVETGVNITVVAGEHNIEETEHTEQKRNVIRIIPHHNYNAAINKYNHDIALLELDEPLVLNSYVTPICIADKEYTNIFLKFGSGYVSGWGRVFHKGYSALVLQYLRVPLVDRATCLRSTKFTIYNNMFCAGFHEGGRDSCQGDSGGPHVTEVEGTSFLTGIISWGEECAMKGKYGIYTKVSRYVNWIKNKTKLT | 42
FIXa-Y155F/K247N/N249S/R403E/E410N (protein) chain 1: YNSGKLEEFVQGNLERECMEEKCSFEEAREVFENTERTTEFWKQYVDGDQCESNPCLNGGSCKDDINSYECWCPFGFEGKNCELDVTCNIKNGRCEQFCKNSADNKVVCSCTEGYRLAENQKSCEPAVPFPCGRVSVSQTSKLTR chain 2: VVGGEDAKPGQFPWQVVLNGKVDAFCGGSIVNEKWIVTAAHCVETGVKITVVAGEHNIEETEHTEQNRSVIRIIPHHNYNAAINKYNHDIALLELDEPLVLNSYVTPICIADKEYTNIFLKFGSGYVSGWGRVFHKGRSALVLQYLRVPLVDRATCLRSTKFTIYNNMFCAGFHEGGRDSCQGDSGGPHVTEVEGTSFLTGIISWGEECAMKGKYGIYTKVSEYVNWIKNKTKLT | 131
FIXa-D104N/K106S/Y155F/R318Y/R338E/R403E/E410N (protein) chain 1: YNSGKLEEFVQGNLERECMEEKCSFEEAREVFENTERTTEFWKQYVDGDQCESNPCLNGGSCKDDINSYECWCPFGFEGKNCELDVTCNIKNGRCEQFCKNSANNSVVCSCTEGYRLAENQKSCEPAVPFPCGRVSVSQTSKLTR chain 2: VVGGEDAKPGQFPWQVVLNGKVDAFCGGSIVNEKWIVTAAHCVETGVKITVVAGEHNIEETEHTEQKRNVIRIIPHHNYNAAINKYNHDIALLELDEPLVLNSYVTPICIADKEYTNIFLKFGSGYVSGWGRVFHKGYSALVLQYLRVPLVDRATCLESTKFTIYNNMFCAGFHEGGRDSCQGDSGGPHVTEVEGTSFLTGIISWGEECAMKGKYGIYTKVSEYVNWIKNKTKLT | 48
FIXa-K247N/N249S/R318Y/R338E/E410N (protein) chain 1: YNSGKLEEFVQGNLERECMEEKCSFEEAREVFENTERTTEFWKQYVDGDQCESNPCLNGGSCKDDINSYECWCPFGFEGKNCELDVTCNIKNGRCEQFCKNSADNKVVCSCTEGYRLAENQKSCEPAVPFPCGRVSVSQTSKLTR chain 2: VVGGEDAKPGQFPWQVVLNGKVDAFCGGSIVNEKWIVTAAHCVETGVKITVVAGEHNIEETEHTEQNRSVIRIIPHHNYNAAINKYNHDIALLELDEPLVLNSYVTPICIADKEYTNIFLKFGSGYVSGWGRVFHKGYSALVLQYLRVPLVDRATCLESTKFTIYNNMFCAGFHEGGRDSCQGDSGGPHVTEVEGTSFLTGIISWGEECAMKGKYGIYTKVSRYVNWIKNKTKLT | 16.6

According to the records, this protein FIXa-K228N/K247N/N249S/R318Y/R338E/T343R/E410N (protein) chain 1: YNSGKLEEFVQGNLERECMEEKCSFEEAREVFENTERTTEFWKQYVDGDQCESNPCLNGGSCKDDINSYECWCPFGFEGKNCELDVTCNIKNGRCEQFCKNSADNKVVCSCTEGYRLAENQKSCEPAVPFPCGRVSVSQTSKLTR chain 2: VVGGEDAKPGQFPWQVVLNGKVDAFCGGSIVNEKWIVTAAHCVETGVNITVVAGEHNIEETEHTEQNRSVIRIIPHHNYNAAINKYNHDIALLELDEPLVLNSYVTPICIADKEYTNIFLKFGSGYVSGWGRVFHKGYSALVLQYLRVPLVDRATCLESTKFRIYNNMFCAGFHEGGRDSCQGDSGGPHVTEVEGTSFLTGIISWGEECAMKGKYGIYTKVSRYVNWIKNKTKLT displays KM of 38.1
